Molecular target: rat P2X2/3 (rat P2X3 co-expressed with rat P2X2) (Rattus norvegicus, UniProt P49653+P49654)
Sequence (P49654 whole entry): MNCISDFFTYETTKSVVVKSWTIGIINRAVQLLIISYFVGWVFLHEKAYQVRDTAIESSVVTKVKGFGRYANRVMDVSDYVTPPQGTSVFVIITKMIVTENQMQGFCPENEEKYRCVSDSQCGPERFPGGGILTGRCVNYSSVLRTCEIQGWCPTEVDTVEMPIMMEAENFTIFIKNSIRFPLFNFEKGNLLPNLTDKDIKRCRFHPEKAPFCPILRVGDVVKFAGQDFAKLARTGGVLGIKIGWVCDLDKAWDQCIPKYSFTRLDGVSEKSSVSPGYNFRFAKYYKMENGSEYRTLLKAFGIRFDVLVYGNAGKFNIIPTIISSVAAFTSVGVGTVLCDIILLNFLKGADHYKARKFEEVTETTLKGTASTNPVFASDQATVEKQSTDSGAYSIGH
Sequence (P49653 whole entry): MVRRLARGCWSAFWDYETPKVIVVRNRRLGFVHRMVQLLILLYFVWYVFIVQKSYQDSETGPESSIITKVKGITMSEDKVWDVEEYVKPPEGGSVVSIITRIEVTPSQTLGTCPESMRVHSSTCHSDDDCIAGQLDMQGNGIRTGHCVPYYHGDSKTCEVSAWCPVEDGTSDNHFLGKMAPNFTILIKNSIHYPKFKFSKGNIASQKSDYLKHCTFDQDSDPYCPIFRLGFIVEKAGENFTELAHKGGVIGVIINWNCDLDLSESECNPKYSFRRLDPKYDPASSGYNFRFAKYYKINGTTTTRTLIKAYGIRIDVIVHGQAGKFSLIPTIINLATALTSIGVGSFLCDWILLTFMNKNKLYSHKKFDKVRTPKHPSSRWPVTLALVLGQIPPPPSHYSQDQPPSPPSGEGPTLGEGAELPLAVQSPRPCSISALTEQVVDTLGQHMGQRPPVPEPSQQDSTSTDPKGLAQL
Assay: rat P2X2/3 FLIPR calcium (Fluo-4) antagonist assay
Settings: Rat P2X2/3 FLIPR Mean IC50 (nM), HEK-TREX cells, tetracycline-induced rat P2X3 with constitutive rat P2X2; agonist 500 nM α,β-methylene-ATP
outcome.measure: IC50 (nM)

// below: answered compounds
[[record]]
compound = "CC(=O)N1CCN(c2nc(NCc3cc(-c4ccccc4)on3)c3c(n2)C(=O)N(C(C)C)C3)CC1"
outcome_measure = "IC50"
reading_unit = "nM"
test_value = 4800

[[record]]
compound = "CC(C)N1Cc2c(NC(C)(C)Cc3ccc(Cl)cc3)nc(N3CCN(C)C(=O)C3)nc2C1=O"
outcome_measure = "IC50"
reading_unit = "nM"
test_value = 1920

[[record]]
compound = "COc1cc(OC(F)(F)F)ccc1CNc1nc(N2CCN(C(C)=O)CC2)nc2c1CN(C(C)C)C2=O"
outcome_measure = "IC50"
reading_unit = "nM"
test_value = 7840

[[record]]
compound = "CC(=O)N1CCN(c2nc3c(c(N4CCCC4c4ccc5ncccc5c4)n2)CN(C(C)C)C3=O)CC1 (stereo not drawn)"
outcome_measure = "IC50"
reading_unit = "nM"
test_value = 11400

[[record]]
compound = "CC(=O)N1CCN(c2nc(NCc3cnn(-c4ccccc4)c3)c3c(n2)C(=O)N(C(C)C)C3)CC1"
outcome_measure = "IC50"
reading_unit = "nM"
test_value = 2440


P = COc1cc(C(F)(F)F)ccc1CNc1nc(N2CCN(C(C)=O)CC2)nc2c1CN(C(C)C)C2=O
Q = CC(=O)N1CCN(c2nc3c(c(N4CCCC4Cc4ccc(C)cc4)n2)CN(C(C)C)C3=O)CC1 (stereo not drawn)
Kindly identify the item with the lower IC50 figure among these two: P and Q API: response body contains the label of the selected item.
Q
(Q: 2680 nM, P: 60700 nM)

1 = CC(=O)N1CCN(c2nc(NC(C)(C)Cc3ccc(F)cc3)c3c(n2)C(=O)N(C(C)C)C3)CC1
2 = CCC(C)N1Cc2c(NCc3cnn(-c4ccccc4)c3)nc(N3CCN(C(C)=O)CC3)nc2C1=O (single isomer, unassigned; (-)) [Example 307]
3 = CC(=O)N1CCN(c2nc(NCc3cc(-c4ccccc4)no3)c3c(n2)C(=O)N(C(C)C)C3)CC1
4 = COc1ccc(CC(C)(C)Nc2nc(N3CCN(C(C)=O)CC3)nc3c2CN(C(C)C)C3=O)cc1
Order the records, beginning with the lowest IC50 and ending with the highest. Could you list the labels in the order requested?
3, 4, 2, 1
(3: 1230 nM, 4: 2180 nM, 2: 12000 nM, 1: 18500 nM)

I = CCC(C)N1Cc2c(NCc3cc4ccccc4cn3)nc(N3CCN(C(C)=O)CC3)nc2C1=O (single isomer, unassigned; (-))
II = CC(=O)N1CCN(c2nc(NCc3cc(C)c4ncccc4c3)c3c(n2)C(=O)N(C(C)C)C3)CC1
Kindly identify the item with the lower IC50 figure among these two: I and II API: response body contains the label of the selected item.
I
(I: 1680 nM, II: 9070 nM)
